assay: Hexadecane autoxidation at 160° C. (hydroperoxide formation), stirred flow reactor, initiated by tetralin hydroperoxide; details: TTBP 1 mM, 40 μM antioxidant, 160° C.
READOUT NAME: inhibition of autoxidation in the presence of added base, compared with 7

• CCCCCCc1ncc(Nc2cnc(N(CCCC)CCCC)nc2)cn1 = particularly good
• CCCCN(CCCC)c1ncc(Nc2cnc(N(CCCC)CCCC)nc2)cn1 = particularly good
• CCCCCCN(CCCCCC)c1ncc(Nc2ccccc2)cn1 = particularly good

====

assay: pKa measurement by titration of hydrochloride salts with NaOH; assay type: physicochemical; settings: 4:1 (v:v) CH3CN:H2O solution of the hydrochloride salt; in 4:1 CH3CN:H2O; read-out: pKa of the conjugate acid
Response key: T means pKa >= 8; F means pKa < 8.

Here are 3 compounds together with their reported answers.
• CCCCCCN(CCCCCC)c1ccc(Nc2ccccc2)cn1 = T
• CCCCN(CCCC)c1ncc(Nc2cnc(N(CCCC)CCCC)nc2)cn1 = T
• CCCCCCc1ncc(Nc2cnc(N(CCCC)CCCC)nc2)cn1 = T

Q: Tell me whether pKa is at least 8 here: c1ccc(Nc2ccccc2)cc1 [Compound 7, reference compound]
Ans: F
